Target: T1, murine GPC3-his protein (Sino Biological, Cat. No. 50989-M08B) (murine, UniProt Q8CFZ4 25-558)
T1 construct: Bought protein; also called murine GPC3 protein
T1 sequence (Q8CFZ4 25-558 limits assumed): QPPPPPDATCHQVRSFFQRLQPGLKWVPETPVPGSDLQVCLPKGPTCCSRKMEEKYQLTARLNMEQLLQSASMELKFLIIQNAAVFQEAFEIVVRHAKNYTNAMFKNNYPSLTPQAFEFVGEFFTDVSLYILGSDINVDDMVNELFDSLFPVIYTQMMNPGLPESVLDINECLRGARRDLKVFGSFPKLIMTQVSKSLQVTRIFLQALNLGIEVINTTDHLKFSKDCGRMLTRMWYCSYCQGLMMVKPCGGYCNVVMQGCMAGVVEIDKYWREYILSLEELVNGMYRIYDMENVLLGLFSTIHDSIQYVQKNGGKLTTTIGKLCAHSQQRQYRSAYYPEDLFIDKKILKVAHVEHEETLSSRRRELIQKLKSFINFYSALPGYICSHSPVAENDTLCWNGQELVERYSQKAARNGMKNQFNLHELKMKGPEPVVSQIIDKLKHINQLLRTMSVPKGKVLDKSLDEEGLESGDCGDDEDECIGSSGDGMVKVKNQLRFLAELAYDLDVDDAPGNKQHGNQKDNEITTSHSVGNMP
Assay: ELISA, coated murine GPC3-His;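 also: antigen coated on plates at 1 µg/mL, test antibody bound for 2 h at 37 °C, detected with HRP-conjugated secondary antibody and TMB substrate after acid stop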
Value kind: OD450 at 1 nM antibody (OD450 nm)
// return numeric value only (unit: OD450 nm, not printed)

*Q* Entry under review: F2.169.2 human-murine chimeric antibody (antibody, human IgG1, kappa, V domains shown) VH: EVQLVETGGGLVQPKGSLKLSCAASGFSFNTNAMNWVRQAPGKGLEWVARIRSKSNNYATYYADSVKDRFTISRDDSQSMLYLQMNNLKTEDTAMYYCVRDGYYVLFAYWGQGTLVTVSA VL: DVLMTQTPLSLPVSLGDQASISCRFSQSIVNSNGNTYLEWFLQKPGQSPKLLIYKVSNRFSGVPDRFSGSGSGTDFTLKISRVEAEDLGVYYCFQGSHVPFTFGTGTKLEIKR . Reported OD450 at 1 nM antibody?
*A* 2.49

*Q* I'd like to know its OD450 at 1 nM antibody. The binder in question is F1.110.24 human-murine chimeric antibody (antibody, human IgG1, kappa, V domains shown) VH: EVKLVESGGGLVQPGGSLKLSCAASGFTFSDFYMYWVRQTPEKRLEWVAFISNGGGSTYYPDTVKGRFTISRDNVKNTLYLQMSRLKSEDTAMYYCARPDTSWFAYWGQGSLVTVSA VL: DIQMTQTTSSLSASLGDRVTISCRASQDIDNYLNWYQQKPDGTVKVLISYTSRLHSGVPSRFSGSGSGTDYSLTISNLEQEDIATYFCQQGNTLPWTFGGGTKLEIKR
*A* 0.32

*Q* Entry F1.9.19 human-murine chimeric antibody (antibody, human IgG1, kappa, V domains shown) VH: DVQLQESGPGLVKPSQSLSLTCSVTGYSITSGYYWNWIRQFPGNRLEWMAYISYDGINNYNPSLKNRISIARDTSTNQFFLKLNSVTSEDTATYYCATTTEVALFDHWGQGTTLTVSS VL: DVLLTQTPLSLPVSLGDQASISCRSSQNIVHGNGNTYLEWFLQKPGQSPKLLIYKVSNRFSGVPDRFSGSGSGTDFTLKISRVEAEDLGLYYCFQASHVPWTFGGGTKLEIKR : reported OD450 at 1 nM antibody = ?
*A* 0.05
